Reference source for all entries: ChEMBL document CHEMBL5113555

- MEASURED ON: Protein cereblon/Epidermal growth factor receptor (Homo sapiens, UniProt P00533+Q96SW2)
- Sequence (P00533 whole entry, looked up, stated change not applied): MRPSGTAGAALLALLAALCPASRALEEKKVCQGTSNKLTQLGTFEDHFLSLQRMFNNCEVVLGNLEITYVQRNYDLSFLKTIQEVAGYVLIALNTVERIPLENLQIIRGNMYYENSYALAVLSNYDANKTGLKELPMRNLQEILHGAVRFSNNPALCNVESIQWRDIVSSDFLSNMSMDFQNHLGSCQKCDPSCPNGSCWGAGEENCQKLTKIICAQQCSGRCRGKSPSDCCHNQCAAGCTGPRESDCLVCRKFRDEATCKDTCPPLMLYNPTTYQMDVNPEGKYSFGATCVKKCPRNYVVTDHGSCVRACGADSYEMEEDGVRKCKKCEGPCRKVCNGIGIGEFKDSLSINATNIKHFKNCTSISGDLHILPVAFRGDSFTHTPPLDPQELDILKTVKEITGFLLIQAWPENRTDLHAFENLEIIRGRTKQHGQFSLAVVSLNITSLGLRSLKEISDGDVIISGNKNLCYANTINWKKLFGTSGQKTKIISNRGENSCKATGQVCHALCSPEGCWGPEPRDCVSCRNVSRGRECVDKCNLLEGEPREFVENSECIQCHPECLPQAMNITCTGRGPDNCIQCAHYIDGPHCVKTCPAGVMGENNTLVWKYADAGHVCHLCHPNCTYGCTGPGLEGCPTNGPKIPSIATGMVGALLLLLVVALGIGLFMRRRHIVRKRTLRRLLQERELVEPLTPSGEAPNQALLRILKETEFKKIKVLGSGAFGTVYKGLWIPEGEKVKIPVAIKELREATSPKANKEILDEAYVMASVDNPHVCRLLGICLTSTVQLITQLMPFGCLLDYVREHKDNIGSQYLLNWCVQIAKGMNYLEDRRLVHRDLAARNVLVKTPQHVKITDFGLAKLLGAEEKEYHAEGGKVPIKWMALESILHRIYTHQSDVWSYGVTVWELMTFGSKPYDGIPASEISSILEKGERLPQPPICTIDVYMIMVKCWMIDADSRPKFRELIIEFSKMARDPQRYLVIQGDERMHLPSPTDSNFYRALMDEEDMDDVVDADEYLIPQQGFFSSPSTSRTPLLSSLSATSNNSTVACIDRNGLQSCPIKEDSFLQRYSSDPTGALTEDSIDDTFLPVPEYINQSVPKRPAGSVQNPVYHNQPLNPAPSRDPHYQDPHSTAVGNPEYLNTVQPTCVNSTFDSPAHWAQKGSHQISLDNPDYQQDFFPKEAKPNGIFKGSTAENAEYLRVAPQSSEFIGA
- Sequence (Q96SW2 whole entry, looked up, stated change not applied): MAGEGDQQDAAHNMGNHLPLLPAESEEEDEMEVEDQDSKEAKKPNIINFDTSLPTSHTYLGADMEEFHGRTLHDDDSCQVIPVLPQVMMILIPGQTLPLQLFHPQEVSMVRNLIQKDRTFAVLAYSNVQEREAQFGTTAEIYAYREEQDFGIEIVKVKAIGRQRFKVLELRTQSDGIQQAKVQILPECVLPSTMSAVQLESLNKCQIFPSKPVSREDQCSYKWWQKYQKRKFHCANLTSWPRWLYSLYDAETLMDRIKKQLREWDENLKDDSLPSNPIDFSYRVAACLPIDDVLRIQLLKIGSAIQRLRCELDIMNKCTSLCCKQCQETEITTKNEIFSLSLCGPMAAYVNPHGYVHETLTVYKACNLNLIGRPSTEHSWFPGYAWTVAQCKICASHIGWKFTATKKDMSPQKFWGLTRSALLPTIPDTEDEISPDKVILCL
- MEASUREMENT DESCRIPTION: Protac activity at E3 ubiquitin ligase/EGFR Del19/[…]/C797S mutant assessed as E3 ubiquitin ligase mediated EGFR degradation in human NCI-H1975 cells expressing Del19/[…]/C797S mutant in clone 28 after 16 hrs by HTRF assay
- Type: cell-based
Measured DC50 of individual entries
Write the number in nM without appending the unit.

COMPOUND | MEASURED ON | DC50 [nM]
CCc1cc(Nc2ncc(Br)c(Nc3cnc4ccccc4c3P(C)(C)=O)n2)c(OC)cc1N1CCC(N2CCN(CCc3cccc4c3n(CC)c(=O)n4C3CCC(=O)NC3=O)CC2)CC1 (stereo not drawn) | Protein cereblon/Epidermal growth factor receptor (Homo sapiens, UniProt P00533+Q96SW2) | 900
CCOc1cc(N2CCC(N3CCN(CCc4cc(F)c(F)c5c4oc(=O)n5C4CCC(=O)NC4=O)CC3)CC2)c(CC)cc1Nc1ncc(Br)c(Nc2cnc3ccccc3c2P(C)(C)=O)n1 (stereo not drawn) | Protein cereblon/Epidermal growth factor receptor (Homo sapiens, UniProt P00533+Q96SW2) | 600

Measured on Protein cereblon/Epidermal growth factor receptor (Homo sapiens, UniProt P00533+Q96SW2), CCc1cc(Nc2ncc(Br)c(Nc3cnc4ccccc4c3P(C)(C)=O)n2)c(OC)cc1N1CCC(N2CCN(CCc3ccc4c(oc(=O)n4C4CCC(=O)NC4=O)c3F)CC2)CC1 (stereo not drawn) has a documented DC50 of 900

---

# Lookup of reported Emax keyed by entry
- Test system: Protein cereblon/Epidermal growth factor receptor (Homo sapiens), P00533+Q96SW2 [UNDEFINED MUTATION]
- Sequence (P00533 whole entry, looked up, stated change not applied): as the sequence (P00533 whole entry, looked up, stated change not applied) above
- Sequence (Q96SW2 whole entry, looked up, stated change not applied): as the sequence (Q96SW2 whole entry, looked up, stated change not applied) above
- MEASUREMENT DESCRIPTION: Protac activity at E3 ubiquitin ligase/EGFR Del19/[…]/C797S mutant assessed as E3 ubiquitin ligase mediated EGFR degradation in human NCI-H1975 cells expressing Del19/[…]/C797S mutant in clone 28 after 16 hrs by HTRF assay relative to control
- Type: cell-based
Give your result as the value with the unit written after it.

// below: answered compounds
COMPOUND | Emax
CCOc1cc(N2CCC(N3CCN(CCc4cccc5c4n(C)c(=O)n5C4CCC(=O)NC4=O)CC3)CC2)c(CC)cc1Nc1ncc(Br)c(Nc2cnc3ccccc3c2P(C)(C)=O)n1 (configuration not stated) | 84%
CCc1cc(Nc2ncc(Br)c(Nc3cnc4ccccc4c3P(C)(C)=O)n2)c(OC)cc1N1CCC(N2CCN(CCc3cccc4c3n(CC)c(=O)n4C3CCC(=O)NC3=O)CC2)CC1 (configuration not stated) | 83%
CCc1cc(Nc2ncc(Br)c(Nc3cnc4ccccc4c3P(C)(C)=O)n2)c(OC)cc1N1CCC(N2CCN(CCc3cccc4c3n(C3CC3)c(=O)n4C3CCC(=O)NC3=O)CC2)CC1 (configuration not stated) | 85%
CCOc1cc(N2CCC(N3CCN(CCc4cccc5c4n(C)c(=O)n5C4CCC(=O)NC4=O)CC3)CC2)c(CC)cc1Nc1ncc(Br)c(Nc2cnc3cc(F)ccc3c2P(C)(C)=O)n1 (configuration not stated) | 84%
CCc1cc(Nc2ncc(Br)c(Nc3cnc4ccccc4c3P(C)(C)=O)n2)c(OC)cc1N1CCC(N2CCN(CCc3ccc4c(oc(=O)n4C4CCC(=O)NC4=O)c3F)CC2)CC1 (configuration not stated) | 81%
CCc1cc(Nc2ncc(Br)c(Nc3cnc4ccccc4c3P(C)(C)=O)n2)c(OC)cc1N1CCC(N2CCN(CCc3ccc(F)c4c3n(C)c(=O)n4C3CCC(=O)NC3=O)CC2)CC1 (configuration not stated) | 86%

Here is the next item to consider.
For CCOc1cc(N2CCC(N3CCN(CCc4cc(F)c(F)c5c4oc(=O)n5C4CCC(=O)NC4=O)CC3)CC2)c(CC)cc1Nc1ncc(Br)c(Nc2cnc3ccccc3c2P(C)(C)=O)n1 (configuration not stated) the compound record lists Emax as 81%

---

- MEASURED ON: Protein cereblon/Epidermal growth factor receptor (Homo sapiens, UniProt P00533+Q96SW2)
- MEASUREMENT DESCRIPTION: Protac activity at E3 ubiquitin ligase/EGFR Del19/[…]/C797S mutant assessed as E3 ubiquitin ligase mediated EGFR degradation in human NCI-H1975 cells expressing Del19/[…]/C797S mutant in clone 28 after 16 hrs by HTRF assay
- Assay type: cell-based
READOUT KIND: DC50 (nM)
Please respond with the number in nM and leave the unit unwritten.

Consider the worked cases shown below.
COMPOUND | READOUT KIND | VALUE OBSERVED
CCOc1cc(N2CCC(N3CCN(CCc4cccc5c4n(C)c(=O)n5C4CCC(=O)NC4=O)CC3)CC2)c(CC)cc1Nc1ncc(Br)c(Nc2cnc3ccccc3c2P(C)(C)=O)n1 (centres undefined) | DC50 | 4400
CCOc1cc(N2CCC(N3CCN(CCc4cccc5c4n(C)c(=O)n5C4CCC(=O)NC4=O)CC3)CC2)c(CC)cc1Nc1ncc(Br)c(Nc2cnc3cc(F)ccc3c2P(C)(C)=O)n1 (centres undefined) | DC50 | 400
CCc1cc(Nc2ncc(Br)c(Nc3cnc4ccccc4c3P(C)(C)=O)n2)c(OC)cc1N1CCC(N2CCN(CCc3ccc(F)c4c3n(C)c(=O)n4C3CCC(=O)NC3=O)CC2)CC1 (centres undefined) | DC50 | 1000

// sample CCc1cc(Nc2ncc(Br)c(Nc3cnc4ccccc4c3P(C)(C)=O)n2)c(OC)cc1N1CCC(N2CCN(CCc3cccc4c3n(C3CC3)c(=O)n4C3CCC(=O)NC3=O)CC2)CC1 (centres undefined) , its DC50 was 700
